# PROCEDURE SUMMARY: physchem
# Format: physicochemical
# CONDITION PARAMETERS: methanol, pH 2, organic solvent or mixture
MEASUREMENT LABEL: solubility (mg/mL)
The figure you give is taken to be in mg/mL; do not add the unit.

Could you tell me which solubility is on file for C[C@@H]1C/C=C/C=C/C=C/C=C/[C@H](O[C@@H]2O[C@H](C)[C@@H](O)[C@H](N)[C@@H]2O)C[C@@H]2O[C@](O)(C[C@@H](O)C[C@H]3O[C@@H]3/C=C/C(=O)O1)C[C@H](O)[C@H]2C(=O)O ?
94

----------
# PROCEDURE SUMMARY: physchem
# Assay type: physicochemical
# CONDITION PARAMETERS: methanol, pH 7, organic solvent or mixture
# Excerpt: Since water content of the extraction medium depends on the amount of water in the feed stream, it is desirable to remove as much water as possible from the feed stream before Step 1. If the feed stream contains about 70% by volume water, about three times as much methanol is required than when starting with a substantially dry feed stream. If the feed stream contains about 40% by volume water, about twice as much methanol is required. […]
MEASUREMENT LABEL: solubility (µg/mL)
The figure you give is taken to be in µg/mL; do not add the unit.

Could you tell me which solubility is on file for C[C@@H]1C/C=C/C=C/C=C/C=C/[C@H](O[C@@H]2O[C@H](C)[C@@H](O)[C@H](N)[C@@H]2O)C[C@@H]2O[C@](O)(C[C@@H](O)C[C@H]3O[C@@H]3/C=C/C(=O)O1)C[C@H](O)[C@H]2C(=O)O [Natamycin, natamycin] ?
6000

Sourced from patent US5591438A
